Data provenance: paper PMC4336329

target.under.test: human ether-à-go-go-related gene (hERG) potassium channel (human)
assay.summary: primary screen, population patch clamp on CHO cells stably expressing hERG; higher = less effect of the substance
Out of some 310,000 compounds screened, about 14,000 (4.5%) showed an effect of 50% or more. Effects have a minus sign here. The sample holds strong results, similar compounds and a random draw of the others, so the mix is not that of the screen.
Class MET: hERG current change (%, negative = inhibition) at 10uM at least -50%. Class NOT MET: hERG current change (%, negative = inhibition) at 10uM below -50%.

compound: COc1cc(/C=C/c2cccc[n+]2C)ccc1OCC(=O)Nc1ccccc1.[I-]
discrete.label: MET
//
compound: OCCC1CN(Cc2cccn2-c2ncccn2)CCN1CCc1ccccc1 (stereo not shown)
discrete.label: NOT MET
//
compound: COc1ccccc1-c1nnc(SC)n1C
discrete.label: MET
//
compound: OCCC1CN(Cc2cccn2-c2cccnc2)CCN1CCc1ccccc1 (stereo not shown)
discrete.label: NOT MET
//
compound: CC(C)CCN1CCN(Cc2cccn2-c2cccnc2)CC1CCO (stereo not shown)
discrete.label: MET
//
compound: C=CCNC(=O)/C(C#N)=C/c1c(N2CCCCCC2)nc2ccccn2c1=O
discrete.label: NOT MET
//
compound: Cc1ccc(N=Nc2c(O)[nH]c(=O)[nH]c2=O)c([N+](=O)[O-])c1
discrete.label: MET
//
compound: CCNC(=O)/C(C#N)=C/c1c(N2CCN(c3ccccc3)CC2)nc2ccccn2c1=O
discrete.label: NOT MET

Evaluate OCCC1CN(Cc2cccn2-c2ncccn2)CCN1Cc1ccc(F)cc1 (stereo not shown) : hERG current change (%, negative = inhibition) at 10uM at minimum -50%?
NOT MET

Check if hERG current change (%, negative = inhibition) at 10uM >= -50% (inclusive). Item: CCN1CCN(c2ccccc2NC(=O)C(C)Oc2ccc(C(C)=O)cc2)CC1 (stereo not shown)
NOT MET

###

Can you tell me hERG current change (%, negative = inhibition) at 10uM for the items I'm about to list?
target.under.test: human ether-à-go-go-related gene (hERG) potassium channel (human, UniProt Q12809)
Sequence (Q12809 whole entry, looked up): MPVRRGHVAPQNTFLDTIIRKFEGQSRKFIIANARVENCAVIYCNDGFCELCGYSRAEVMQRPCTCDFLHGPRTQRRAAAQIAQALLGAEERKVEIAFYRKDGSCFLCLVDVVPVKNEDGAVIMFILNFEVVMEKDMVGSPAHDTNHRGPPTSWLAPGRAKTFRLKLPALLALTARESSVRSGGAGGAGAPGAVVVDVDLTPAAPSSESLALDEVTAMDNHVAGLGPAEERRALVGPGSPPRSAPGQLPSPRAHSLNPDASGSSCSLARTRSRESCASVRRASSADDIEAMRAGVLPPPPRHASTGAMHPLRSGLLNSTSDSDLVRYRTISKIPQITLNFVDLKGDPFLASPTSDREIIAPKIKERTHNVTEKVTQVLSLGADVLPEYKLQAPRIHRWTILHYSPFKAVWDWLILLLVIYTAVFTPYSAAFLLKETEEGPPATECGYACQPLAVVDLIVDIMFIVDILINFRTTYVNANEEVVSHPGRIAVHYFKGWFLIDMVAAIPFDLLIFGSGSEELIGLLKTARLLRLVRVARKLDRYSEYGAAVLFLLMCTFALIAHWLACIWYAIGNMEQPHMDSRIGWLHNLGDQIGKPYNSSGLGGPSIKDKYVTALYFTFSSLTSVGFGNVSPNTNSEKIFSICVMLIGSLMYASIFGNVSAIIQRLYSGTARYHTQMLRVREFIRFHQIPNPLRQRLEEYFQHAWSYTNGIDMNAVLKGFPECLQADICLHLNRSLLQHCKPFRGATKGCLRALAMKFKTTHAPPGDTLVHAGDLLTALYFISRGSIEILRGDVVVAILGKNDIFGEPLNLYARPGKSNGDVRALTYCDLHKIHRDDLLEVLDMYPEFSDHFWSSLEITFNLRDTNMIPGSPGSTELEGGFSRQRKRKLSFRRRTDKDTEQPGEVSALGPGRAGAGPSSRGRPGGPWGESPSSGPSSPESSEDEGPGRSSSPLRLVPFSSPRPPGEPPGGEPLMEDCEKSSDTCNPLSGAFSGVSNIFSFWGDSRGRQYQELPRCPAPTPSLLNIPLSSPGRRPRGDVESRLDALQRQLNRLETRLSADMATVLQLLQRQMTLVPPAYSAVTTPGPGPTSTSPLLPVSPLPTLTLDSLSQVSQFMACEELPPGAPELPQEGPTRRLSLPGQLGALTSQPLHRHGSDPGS
assay.summary: primary screen, population patch clamp on CHO cells stably expressing hERG; higher = less effect of the substance
Screen size: about 310,000 compounds; about 14,000 (4.5%) showed an effect of 50% or more. Effects have a minus sign here. What follows is part of a selection rich in strong results, with near analogues and random picks from the rest.
Numbers only, in %.

Consider the reported hERG current change (%, negative = inhibition) at 10uM for these molecules:
molecule: O=C(COC(=O)CNC(=O)c1sc2ccccc2c1Cl)Nc1c(Cl)cc(Cl)cc1Cl
unit.name: %
recorded.value: 15.6
//
molecule: O=C(COC(=O)CNC(=O)c1sc2ccccc2c1Cl)Nc1cc(Cl)cc(Cl)c1
unit.name: %
recorded.value: -54.7
//
molecule: CCNC(=O)C12CCC(C)(c3nc4cc(C)c(C)cc4nc31)C2(C)C (centres unmarked)
unit.name: %
recorded.value: 33.5
//
molecule: CC(OC(=O)Cc1c[nH]c2ccccc12)C(=O)Nc1ccccc1F (centres unmarked)
unit.name: %
recorded.value: -11.7
//
molecule: Cc1cc(C)cc(OCCNC(=O)CCc2ccccc2)c1
unit.name: %
recorded.value: 4.83
//
molecule: O=C(c1ccco1)N1CCN(CCCCN2C(=O)c3ccccc3C2=O)CC1
unit.name: %
recorded.value: -40
//
molecule: O=C1CCCCC/C1=N/Nc1ccc(OCc2ccccc2)cc1
unit.name: %
recorded.value: 17.3
//
molecule: C[C@@H]1CC=C[C@H]2[C@H]1C(=O)N(Cc1ccccc1)[C@H]2c1ccoc1
unit.name: %
recorded.value: 3.54

For every item below, please supply its hERG current change (%, negative = inhibition) at 10uM.
1. O=C(NCCOc1nc(N2CCCCC2)nc(N2CCOCC2)n1)Nc1ccccc1
2. O=C(NCC(=O)N1CCN(c2ccccc2O)CC1)c1cccs1
3. CSc1ccc(C(=O)N2CCC(CCC(=O)NC3CC3)CC2)cc1
4. CN1CCN(Cc2cc(Cl)c3cccnc3c2OC(=O)c2cccs2)CC1

1: -0.098; 2: 3.84; 3: -30.8; 4: -53.3

List the reported hERG current change (%, negative = inhibition) at 10uM of each molecule below.
1. COc1cccc(OC)c1OCCN1CCN(C(=O)c2ccco2)CC1.Cl
2. O=C(Oc1c(Cl)cc(Cl)c2cccnc12)c1cccs1
3. Cc1ccc(NC(=O)c2ccc(Cl)c(NC(=O)c3cccs3)c2)cc1
4. CCCCN(CC)CCNC(=O)Cn1cc2c(n1)-c1c(oc(C(=O)N3CCCC3)c1C)CC2
5. Cc1ccc(NC(=O)CSCC(=O)N2CCN(c3cccc(C(F)(F)F)c3)CC2)cc1
6. CCCn1c(=O)c(C(=O)NNC(=O)c2cccc([N+](=O)[O-])c2)c(O)c2ccccc21
7. Cc1cc(S(=O)(=O)N2CCN(c3ccccc3C)CC2)ccc1F
8. O=C(CCC1CCN(Cc2ccccc2Cl)CC1)NC1CC1

-16.2
1.95
-12.5
-27.9
-13
-21.7
1.78
-23.2

###

target.under.test: human ether-à-go-go-related gene (hERG) potassium channel (human)
assay.summary: primary screen, population patch clamp on CHO cells stably expressing hERG; higher = less effect of the substance
Out of some 310,000 compounds screened, about 14,000 (4.5%) showed an effect of 50% or more. The effect is printed as a negative number. The sample holds strong results, similar compounds and a random draw of the others, so the mix is not that of the screen.
readout.kind: hERG current change (%, negative = inhibition) at 10uM (%)
Numbers only, in %.

molecule: COc1ccc(Cl)cc1C(=O)Nn1c(-c2cccs2)nc2ccccc2c1=O
unit.name: %
recorded.value: -5.47

Give me hERG current change (%, negative = inhibition) at 10uM for each of these molecules, listed below.
1. Cc1nnc(SCC(=O)NC2CC2)n1CCc1ccccc1
2. CCCC(=O)Nc1nc2c(c(=O)[nH]1)CCCC2
3. CCOC(=O)NNc1ccccc1
4. COC(=O)C1=C(C)NC(C)=C(C(=O)OC)C1c1ccccn1
5. Cc1ccc(/C=N/Nc2ccc(Cl)c(C(=O)O)c2)s1

[13, 10.2, 6.88, 5.81, 10]

###

Give hERG current change (%, negative = inhibition) at 10uM for every item shown.
target.under.test: human ether-à-go-go-related gene (hERG) potassium channel (human, UniProt Q12809)
assay.summary: primary screen, population patch clamp on CHO cells stably expressing hERG; higher = less effect of the substance
Hit rate of the full screen: of about 310,000 compounds, about 14,000 (4.5%) showed an effect of 50% or more. The effect is printed as a negative number. The entries come from a sample that favours strong results as a whole.
One number for each entry, in %.

line.notation: O=C(c1ccc(F)cc1)C1CCN(C(=O)c2ccccc2)CC1
recorded.value: -9.13

Required: hERG current change (%, negative = inhibition) at 10uM, one value per compound below.
1. O=C(CCCCn1c(=O)[nH]c2ccccc2c1=O)NC1CCN(Cc2ccccc2)CC1
2. O=c1c2ccccc2[nH]c(=S)n1CCN1CCCC1
3. O=C(O)C(O)C(O)C(=O)O.O=C(c1ccc(F)cc1)C1CCN(CCn2c(=O)[nH]c3ccccc3c2=O)CC1
4. O=C(O)CCn1c(=O)[nH]c2ccccc2c1=O

1. -18.9
2. -19.1
3. -51.8
4. 12.4

###

target.under.test: human ether-à-go-go-related gene (hERG) potassium channel (human, UniProt Q12809)
assay.summary: primary screen, population patch clamp on CHO cells stably expressing hERG; higher = less effect of the substance
In all, about 310,000 compounds went through this assay and about 14,000 (4.5%) showed an effect of 50% or more. The effect is printed as a negative number. Many of the other results were omitted from the sample, so strong results are more common in it than they were.
readout.kind: hERG current change (%, negative = inhibition) at 10uM
Provide a numeric answer, followed by its unit.

Would you please look over these solved cases?
compound: O=C(CSc1nc2[nH]ncc2c(=O)n1-c1ccc(Cl)c(Cl)c1)NCc1ccccc1Cl
target.under.test: human ether-à-go-go-related gene (hERG) potassium channel (human, UniProt Q12809)
recorded.value: -11.4%
--
compound: Cc1nn(C2CCCCC2)c(N)c1-c1ccccc1
target.under.test: human ether-à-go-go-related gene (hERG) potassium channel (human, UniProt Q12809);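 also: peak tail current of the secondary pulse compared with the same well before compound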
recorded.value: -3.53%
--
compound: CC(=O)c1ccc(-c2nc3ccccc3n2C)o1
target.under.test: human ether-à-go-go-related gene (hERG) potassium channel (human, UniProt Q12809);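 also: peak tail current of the secondary pulse compared with the same well before compound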
recorded.value: 12.7%
--
compound: c1ccc(-c2cccc(-c3ccccc3)n2)cc1
target.under.test: human ether-à-go-go-related gene (hERG) potassium channel (human, UniProt Q12809);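 also: peak tail current of the secondary pulse compared with the same well before compound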
recorded.value: 18.4%
--
compound: COc1cccc(S(=O)(=O)Nc2ccc(C(=O)NCc3ccco3)cc2)c1
target.under.test: human ether-à-go-go-related gene (hERG) potassium channel (human, UniProt Q12809);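 also: peak tail current of the secondary pulse compared with the same well before compound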
recorded.value: 3.01%

State recorded hERG current change (%, negative = inhibition) at 10uM for all listed compounds.
1. CC(OC(=O)Cn1cnc2c1c(=O)n(C)c(=O)n2C)C(=O)NC1CCCCC1C (stereo not shown)
2. CCOC(=O)Nc1ccc(C(=O)c2ccncc2)cc1
3. Cc1cc(C(=O)OCC(=O)Nc2nccs2)c2ccccc2n1

15.4%
14.7%
1.22%

Give hERG current change (%, negative = inhibition) at 10uM for each of the items listed below.
1. Cc1cc(C)cc(NC(=O)C(=O)NCCc2c[nH]c3ccccc23)c1
2. COc1cccc(NC(=O)CN(C)C(=O)c2cc(C)oc2C)c1

["14.9%", "6.56%"]
